Measured On: PACE4 (Homo sapiens)
Sequence (P29122 150-969): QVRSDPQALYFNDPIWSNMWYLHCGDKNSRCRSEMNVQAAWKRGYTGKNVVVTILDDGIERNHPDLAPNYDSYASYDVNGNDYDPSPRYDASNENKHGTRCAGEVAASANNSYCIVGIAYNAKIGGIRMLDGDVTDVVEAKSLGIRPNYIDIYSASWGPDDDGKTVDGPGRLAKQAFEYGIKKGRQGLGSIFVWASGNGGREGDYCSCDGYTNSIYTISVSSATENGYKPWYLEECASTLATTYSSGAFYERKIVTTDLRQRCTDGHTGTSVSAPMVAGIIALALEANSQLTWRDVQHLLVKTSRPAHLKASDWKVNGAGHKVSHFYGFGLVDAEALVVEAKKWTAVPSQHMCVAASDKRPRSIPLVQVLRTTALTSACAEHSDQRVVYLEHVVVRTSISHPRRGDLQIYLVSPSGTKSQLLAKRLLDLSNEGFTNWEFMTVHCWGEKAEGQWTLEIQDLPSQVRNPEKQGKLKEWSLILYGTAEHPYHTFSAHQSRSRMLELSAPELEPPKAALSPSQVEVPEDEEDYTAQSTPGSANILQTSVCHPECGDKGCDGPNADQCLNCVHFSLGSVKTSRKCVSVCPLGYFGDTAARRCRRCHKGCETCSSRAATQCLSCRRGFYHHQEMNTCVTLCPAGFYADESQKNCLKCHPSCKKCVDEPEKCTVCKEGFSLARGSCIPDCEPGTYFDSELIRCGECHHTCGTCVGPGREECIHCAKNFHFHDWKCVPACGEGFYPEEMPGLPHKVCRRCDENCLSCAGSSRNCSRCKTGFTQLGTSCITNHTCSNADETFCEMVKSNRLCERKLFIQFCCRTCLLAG
Assay Summary: Enzyme inhibition assay, fluorogenic substrate, PACE4
Type: biochemical
Stated Conditions: 20 mM Bis-Tis pH 6.5, 1 mM CaCl2, substrate 100 μM, 37° C.
Property Measured: Ki (nM)
One number for each entry, in nM.

-- ask Report Ki for H-LLLLRVKR-NH2 [ML] please.
-- reply 6
